assay-comment: NCI Yeast Anticancer Drug Screen. Data for the sgs1 mgt1 strain (AID 161);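 note: 0% = growth of cultures given vehicle only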
test-settings: S. cerevisiae sgs1 mgt1 strain, at 50.0 µM, stronger effect = higher value
The panel holds about 79,000 compounds, 15% with a hit somewhere; the sample as a whole holds those more often.
readout: growth inhibition (%)
Give your result in % as a bare value.

Worked examples, 5 compounds total:
# growth inhibition (compound: CC(C)CCCC(C)[C@H]1CCC(C2C[C@@H](O)[C@@H]3CC(O)[C@@H](O)C[C@]3(CO)C2=O)[C@]1(C)CCO (stereo partly specified) ) is 91.7

The recorded growth inhibition for `CCOc1ccc(-c2nc3ccc(-c4nc5ccc(N6CCN(C)CC6)cc5[nH]4)cc3[nH]2)cc1` is 90.2

The measured growth inhibition associated with `Cc1cc(C)c(C(=O)/C=C/C(=O)c2ccccc2)c(C)c1` reads 90.6

compound `O=C1C=CC(=O)c2c(O)c(N3CCN(CCO)CC3)c(Cl)c(O)c21` , growth inhibition observed: 90.7

GET /value?item= `O=C(/C=C/C(=O)OCCCl)OCCCl` &field=growth inhibition returns 92.5

Continue with the compound presented below.
What the record says about `Cn1cc(NC(=O)c2cc(NC(=O)CCCCCCCC(=O)Nc3cc(C(=O)Nc4cc(C(=O)NCCC(=N)N)n(C)c4)n(C)c3)cn2C)cc1C(=O)NCCC(=N)N` : growth inhibition is 90.2

----------
Reported growth inhibition by item:
assay-comment: NCI Yeast Anticancer Drug Screen. Data for the rad50 strain (AID 155);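 note: 0% = growth of vehicle-only cultures of the same strain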
test-settings: S. cerevisiae rad50 strain growth inhibition; at 50.0 µM; stronger effect = higher value
The panel holds about 79,000 compounds, 15% with a hit somewhere; the sample as a whole holds those more often.
Record the value in %, omitting the unit from your answer.

Example entries begin here.
What the record says about CSC(=S)NNC(C)c1nccc2ccccc12 (configuration not stated) : growth inhibition is 97.8

Field growth inhibition (entry `COC(=O)c1ccccc1C#Cc1ccccc1C(=O)OC` ) reads 66.8

// growth inhibition value for `NC(=O)c1nnn(Cc2cc(Cl)c(C(=O)c3ccc(Cl)cc3)c(Cl)c2)c1N` : 57.2

growth inhibition measured on `CC[n+]1c(/C=C/c2cc(C(=O)OC)n3c2sc2ccccc23)sc2ccccc21` = 99

Continuing:
growth inhibition reported for this compound Cc1cccc(C)c1N1C(=O)C2Nc3ccccc3SC2C1=O (configuration not stated) : 98.5

get_value(item= `COC1=CC(=O)c2c(O)c3c(c(O)c2C1=O)C[C@](C)(O)C[C@@H]3O` , readout=growth inhibition) returns 84.7

Form: compound = `O=C(Nc1ccccc1)OCCc1ccc(Br)cc1` ; growth inhibition = 13.2

For `CSc1nc(=S)c2[nH]c(C)nc2[nH]1` the compound record lists growth inhibition as 93.3

// recorded growth inhibition for `O=[N+]([O-])c1cc2cccnc2c2ncccc12` : 63

Input CCC1CCC(CC)C1=O (configuration not stated) . Output growth inhibition: 94.2

----------
assay-comment: NCI Yeast Anticancer Drug Screen. Data for the cln2 rad14 strain (AID 165);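 note: 0% = growth equal to vehicle treated cultures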
test-settings: S. cerevisiae cln2 rad14 strain, at 50.0 µM, stronger effect = higher value
Compounds without any hit were thinned out: in the full panel of roughly 79,000, 15% have a hit.
readout: growth inhibition (%)
Give the value, in units of %, as a plain number.

Documented growth inhibition of `CCCCc1c2c(nc3c1CCc1cc4cc5c(nc4nc1-3)-c1nc3c(c(CCCC)c1CC5)CCC/C3=N/OC)/C(=N\OC)CCC2` : 95.3

growth inhibition reading for `CCCCCCCCCCCCCCCCCO` : -15.6

response.value for `O=C(O)/C(=C\c1ccc(F)cc1)c1ccccc1` (field: growth inhibition) = 38.8

Record summary for `Nc1ccc(-c2nc3ccccc3s2)cc1Br` : reported growth inhibition = 10.8

Field growth inhibition (entry `c1ccc2c(c1)Nc1ccccc1[P+]21c2ccccc2Nc2ccccc21` ) reads 84.3

// field: growth inhibition; key: `CCOC(=O)N1CCN(CCCOc2ccc(Cl)cc2Cc2ccccc2)CC1` ; value = 99.5

For this compound ( `Cc1ccc(O)c(Cc2ccccc2Cl)c1` ), measured growth inhibition is 99

Reported growth inhibition ( `CSc1cc(C(=O)O)nc(N)n1` ) = 28.1

Lookup result for O=C(CC1(O)C(=O)Nc2c(Cl)ccc(Cl)c21)c1ccc(Cl)cc1Cl (centres undefined) ; measured growth inhibition: 91.3
